targetOrTestSystem: cloned human or rodent CNS receptors, channels, and transporters (PDSP panel) (Homo sapiens, UniProt P41595)
Construct: expressed in transfected cells
Sequence (P41595 whole entry): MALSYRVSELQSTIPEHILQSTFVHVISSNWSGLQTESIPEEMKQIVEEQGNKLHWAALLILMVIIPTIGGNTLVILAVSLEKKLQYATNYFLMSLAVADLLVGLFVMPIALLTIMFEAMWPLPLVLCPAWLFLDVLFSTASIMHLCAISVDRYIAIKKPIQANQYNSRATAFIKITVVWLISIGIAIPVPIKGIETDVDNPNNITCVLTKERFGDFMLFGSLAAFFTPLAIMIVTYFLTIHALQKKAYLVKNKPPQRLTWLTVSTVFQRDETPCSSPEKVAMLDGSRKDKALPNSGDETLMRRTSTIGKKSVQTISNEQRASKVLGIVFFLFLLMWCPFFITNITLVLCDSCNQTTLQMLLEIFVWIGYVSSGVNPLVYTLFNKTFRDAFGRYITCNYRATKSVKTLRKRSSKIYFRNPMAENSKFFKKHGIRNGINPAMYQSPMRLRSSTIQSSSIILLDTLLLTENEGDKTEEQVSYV
assayInfo: PDSP GPCR panel primary binding assays at 10 μM
recordedConditions: 5-HT2B; primary assay, replicate 1
experimentalReadout: Inhibition 1 (%)
Give a bare numeral; the unit % is implied.

Below, 3 molecules whose answers are already recorded.
molecule	Inhibition 1 / %
CNc1nc(C)nc(N[C@H]2CCC[C@@H](C(=O)NCc3ccc(C#N)cc3C(F)(F)F)C2)n1 [UNC10302679A, GSK2256294A]	-0.89
CCC(=O)N1CCC(NC(=O)Nc2ccc(OC(F)(F)F)cc2)CC1 [UNC10302681A, TPPU]	68.75
CC(=O)N1CCC(NC(=O)NC23CC4CC(CC(C4)C2)C3)CC1 [UNC10302683A, AR9281]	28.05

Okay, now this molecule:
Q. Request the reported Inhibition 1 associated with O=C(NC1CC1)C(=O)C(Cc1ccccc1)NC(=O)[C@H]1CCC(=O)N1Cc1ccccc1 (stereo partly shown) [UNC10302676A, ABT-957 (Alicapistat)]
A. -14.32

* * *

# reported Inhibition 2; entries follow
Test system: cloned human or rodent CNS receptors, channels, and transporters (PDSP panel)
assayInfo: PDSP GPCR panel primary binding assays at 10 μM
recordedConditions: Alpha2C; primary assay, replicate 2
Quick note: give the figure in %, leave out the unit.

molecule	reportedResult
CNc1nc(C)nc(N[C@H]2CCC[C@@H](C(=O)NCc3ccc(C#N)cc3C(F)(F)F)C2)n1 [UNC10302679A, GSK2256294A]	1.35
CC(=O)N1CCC(NC(=O)NC23CC4CC(CC(C4)C2)C3)CC1 [UNC10302683A, AR9281]	-7.23
CCC(=O)N1CCC(NC(=O)Nc2ccc(OC(F)(F)F)cc2)CC1 [UNC10302681A, TPPU]	-3.57

Field: next molecule
Q. Query for cloned human or rodent CNS receptors, channels, and transporters (PDSP panel): what Inhibition 2 does the record show for O=C(NC1CC1)C(=O)C(Cc1ccccc1)NC(=O)[C@H]1CCC(=O)N1Cc1ccccc1 (stereo partly shown) [UNC10302676A, ABT-957 (Alicapistat)] ?
A. -10.33

* * *

targetOrTestSystem: cloned human or rodent CNS receptors, channels, and transporters (PDSP panel) (Homo sapiens, UniProt P34969)
Construct: expressed in transfected cells
Sequence (P34969 whole entry): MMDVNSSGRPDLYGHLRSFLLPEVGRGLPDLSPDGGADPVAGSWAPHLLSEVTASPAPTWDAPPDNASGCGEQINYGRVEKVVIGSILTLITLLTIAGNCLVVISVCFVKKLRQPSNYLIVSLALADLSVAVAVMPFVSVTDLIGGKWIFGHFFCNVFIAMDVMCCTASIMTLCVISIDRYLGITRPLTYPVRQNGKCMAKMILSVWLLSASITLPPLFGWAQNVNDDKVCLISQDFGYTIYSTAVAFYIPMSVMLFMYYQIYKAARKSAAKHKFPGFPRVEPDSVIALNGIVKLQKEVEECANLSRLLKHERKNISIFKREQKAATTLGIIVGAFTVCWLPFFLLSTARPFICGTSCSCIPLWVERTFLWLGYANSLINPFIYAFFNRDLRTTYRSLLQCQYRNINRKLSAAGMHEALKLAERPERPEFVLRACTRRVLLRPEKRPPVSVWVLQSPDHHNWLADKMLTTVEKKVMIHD
assayInfo: PDSP GPCR panel primary binding assays at 10 μM
recordedConditions: Receptor 5-HT7A; primary assay, 10 μM
experimentalReadout: Inhibition 4 (%)
I only need the number, in %, no unit after it.

Here are 3 compounds together with their reported answers.
compound	experimentalReadout	unitsSymbol	reportedResult
CCCCNc1ncc2c(-c3ccc(CN4CCN(C)CC4)cc3)cn([C@H]3CC[C@H](O)CC3)c2n1 [UNC2025C, UNC2025]	Inhibition 4	%	-17.42
c1cn2cc(-c3ccc4cn[nH]c4c3)nc(Nc3ccc(N4CCOCC4)cc3)c2n1 [UNC10302678A, Entospletinib (GS-9973)]	Inhibition 4	%	35.72
Cl.NC(=O)c1cnc(N[C@@H]2CCCC[C@@H]2N)nc1Nc1cccc(-n2nccn2)c1 [UNC10302682A, P505-15 (PRT06207 HCl)]	Inhibition 4	%	52.91

Now examine the next entry.
Q. What does the data say about its Inhibition 4? Entry: O=c1oc2ccccc2cc1-c1cn2cc(Cc3ccc(F)cc3)sc2n1 [UNC10302680A, iMDK]
A. 21.31

* * *

targetOrTestSystem: cloned human or rodent CNS receptors, channels, and transporters (PDSP panel) (Homo sapiens, UniProt P18089)
Construct: expressed in transfected cells
Sequence (P18089 whole entry): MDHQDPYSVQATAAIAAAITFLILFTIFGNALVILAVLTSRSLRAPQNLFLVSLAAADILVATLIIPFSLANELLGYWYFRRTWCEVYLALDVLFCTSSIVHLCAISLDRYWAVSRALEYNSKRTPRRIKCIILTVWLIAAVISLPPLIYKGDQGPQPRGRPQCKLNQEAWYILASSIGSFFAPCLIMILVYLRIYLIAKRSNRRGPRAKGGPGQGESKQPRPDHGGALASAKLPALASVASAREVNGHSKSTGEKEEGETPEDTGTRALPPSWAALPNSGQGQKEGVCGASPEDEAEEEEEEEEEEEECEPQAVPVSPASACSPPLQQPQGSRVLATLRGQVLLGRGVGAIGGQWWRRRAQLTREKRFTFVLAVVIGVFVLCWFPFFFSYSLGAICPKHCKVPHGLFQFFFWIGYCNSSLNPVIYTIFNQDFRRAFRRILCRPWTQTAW
assayInfo: PDSP GPCR panel primary binding assays at 10 μM
recordedConditions: Receptor Alpha2B; primary assay, 10 μM; mean of Inhibition 1-4
experimentalReadout: Mean % (%)
Write down the numeric answer in % and omit the unit.

Q. Give its Mean % value. Item: CCCCNc1ncc2c(-c3ccc(CN4CCN(C)CC4)cc3)cn([C@H]3CC[C@H](O)CC3)c2n1 [UNC2025C, UNC2025]
A. 27.18

Q. Entry c1cn2cc(-c3ccc4cn[nH]c4c3)nc(Nc3ccc(N4CCOCC4)cc3)c2n1 [UNC10302678A, Entospletinib (GS-9973)] : reported Mean % = ?
A. -3.45

Q. What measured Mean % goes with O=c1oc2ccccc2cc1-c1cn2cc(Cc3ccc(F)cc3)sc2n1 [UNC10302680A, iMDK] ?
A. 0.82

Q. Data request, read-out Mean %, for Cl.NC(=O)c1cnc(N[C@@H]2CCCC[C@@H]2N)nc1Nc1cccc(-n2nccn2)c1 [UNC10302682A, P505-15 (PRT06207 HCl)]
A. 0.91

* * *

targetOrTestSystem: norepinephrine transporter (Homo sapiens)
Construct: expressed in transfected cells
Sequence (P23975 whole entry): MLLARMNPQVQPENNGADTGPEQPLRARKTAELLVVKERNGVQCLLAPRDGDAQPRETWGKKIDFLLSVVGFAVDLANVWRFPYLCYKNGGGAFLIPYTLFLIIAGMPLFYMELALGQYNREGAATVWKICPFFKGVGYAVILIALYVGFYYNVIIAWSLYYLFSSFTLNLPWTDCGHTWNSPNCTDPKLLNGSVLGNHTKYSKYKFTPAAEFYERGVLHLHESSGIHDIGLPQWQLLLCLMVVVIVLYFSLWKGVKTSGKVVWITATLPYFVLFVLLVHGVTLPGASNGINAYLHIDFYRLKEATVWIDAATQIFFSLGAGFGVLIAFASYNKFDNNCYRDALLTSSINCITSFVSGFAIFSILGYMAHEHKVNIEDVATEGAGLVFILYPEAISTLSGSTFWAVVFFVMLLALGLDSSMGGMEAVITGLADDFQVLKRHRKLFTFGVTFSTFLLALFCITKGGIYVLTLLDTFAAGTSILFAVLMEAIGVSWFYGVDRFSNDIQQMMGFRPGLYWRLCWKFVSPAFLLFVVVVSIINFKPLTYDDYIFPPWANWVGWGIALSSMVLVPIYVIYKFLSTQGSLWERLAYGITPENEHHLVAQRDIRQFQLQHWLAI
assayInfo: PDSP secondary binding, norepinephrine transporter
Set-up: species or system human or rodent
recordedConditions: calculated Ki, secondary binding assay; read-out: Ki norepinephrine transporter
Description: GPCR panel: Screening against the receptors within the PDSP panel offers an assessment of off-target pharmacological activity at cloned human or rodent CNS receptors, channels, and transporters that could confound CNS-related phenotypes. A total of 46–47 primary binding assays were run in quadruplicate on these compounds at 10 μM, with follow-up secondary binding assays in 11-point dose-response in triplicate for select compounds versus select receptors. […]
experimentalReadout: Ki (nM)
Your answer should be a plain number; it is taken to be in nM.

Q. Any idea what Ki was measured for CCCCNc1ncc2c(-c3ccc(CN4CCN(C)CC4)cc3)cn([C@H]3CC[C@H](O)CC3)c2n1 [UNC2025C, UNC2025] ?
A. 1400

* * *

targetOrTestSystem: cloned human or rodent CNS receptors, channels, and transporters (PDSP panel) (Homo sapiens, UniProt P50406)
Construct: expressed in transfected cells
Sequence (P50406 whole entry): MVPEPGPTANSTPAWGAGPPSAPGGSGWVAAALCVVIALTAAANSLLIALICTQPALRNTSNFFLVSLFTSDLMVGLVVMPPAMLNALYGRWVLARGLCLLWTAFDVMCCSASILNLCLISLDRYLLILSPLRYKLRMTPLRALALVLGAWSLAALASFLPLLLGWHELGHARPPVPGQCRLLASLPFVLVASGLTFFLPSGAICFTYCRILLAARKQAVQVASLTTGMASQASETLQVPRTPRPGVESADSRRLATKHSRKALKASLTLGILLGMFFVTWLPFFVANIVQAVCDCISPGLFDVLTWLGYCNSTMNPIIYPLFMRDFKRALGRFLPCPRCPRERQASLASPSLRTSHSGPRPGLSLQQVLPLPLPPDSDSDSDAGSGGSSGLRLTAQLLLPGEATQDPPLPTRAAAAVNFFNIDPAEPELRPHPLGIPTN
assayInfo: PDSP GPCR panel primary binding assays at 10 μM
recordedConditions: Receptor 5-HT6; primary assay, 10 μM
experimentalReadout: Inhibition 3 (%)
Write the value in % as a bare number.

compound	experimentalReadout	reportedResult
c1cn2cc(-c3ccc4cn[nH]c4c3)nc(Nc3ccc(N4CCOCC4)cc3)c2n1 [UNC10302678A, Entospletinib (GS-9973)]	Inhibition 3	-11.39
CCCCNc1ncc2c(-c3ccc(CN4CCN(C)CC4)cc3)cn([C@H]3CC[C@H](O)CC3)c2n1 [UNC2025C, UNC2025]	Inhibition 3	-8.54
Cl.NC(=O)c1cnc(N[C@@H]2CCCC[C@@H]2N)nc1Nc1cccc(-n2nccn2)c1 [UNC10302682A, P505-15 (PRT06207 HCl)]	Inhibition 3	-2.98

Q. Param item = O=c1oc2ccccc2cc1-c1cn2cc(Cc3ccc(F)cc3)sc2n1 [UNC10302680A, iMDK] ; retrieve measured Inhibition 3.
A. -13.62

* * *

targetOrTestSystem: cloned human or rodent CNS receptors, channels, and transporters (PDSP panel) (Homo sapiens, UniProt P25100)
Construct: expressed in transfected cells
Sequence (P25100 whole entry): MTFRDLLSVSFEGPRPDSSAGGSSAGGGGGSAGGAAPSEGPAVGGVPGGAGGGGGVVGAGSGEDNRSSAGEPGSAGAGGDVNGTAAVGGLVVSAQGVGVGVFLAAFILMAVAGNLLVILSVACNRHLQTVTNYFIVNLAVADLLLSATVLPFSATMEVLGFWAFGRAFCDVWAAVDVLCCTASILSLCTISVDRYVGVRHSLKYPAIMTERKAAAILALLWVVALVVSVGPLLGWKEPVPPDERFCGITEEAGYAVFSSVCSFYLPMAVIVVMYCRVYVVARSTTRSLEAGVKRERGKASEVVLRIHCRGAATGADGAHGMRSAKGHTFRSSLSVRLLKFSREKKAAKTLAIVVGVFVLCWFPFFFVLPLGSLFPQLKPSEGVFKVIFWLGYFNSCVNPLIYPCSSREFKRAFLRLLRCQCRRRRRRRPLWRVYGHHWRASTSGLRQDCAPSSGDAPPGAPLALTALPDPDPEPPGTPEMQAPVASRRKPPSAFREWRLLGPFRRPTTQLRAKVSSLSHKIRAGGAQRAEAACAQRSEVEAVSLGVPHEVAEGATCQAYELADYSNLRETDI
assayInfo: PDSP GPCR panel primary binding assays at 10 μM
recordedConditions: Receptor Alpha1D; primary assay, 10 μM
Each record here notes measured Inhibition 4.

Reference set, count: 3
molecule	Inhibition 4
c1cn2cc(-c3ccc4cn[nH]c4c3)nc(Nc3ccc(N4CCOCC4)cc3)c2n1 [UNC10302678A, Entospletinib (GS-9973)]	-10.27%
O=c1oc2ccccc2cc1-c1cn2cc(Cc3ccc(F)cc3)sc2n1 [UNC10302680A, iMDK]	-17.23%
Cl.NC(=O)c1cnc(N[C@@H]2CCCC[C@@H]2N)nc1Nc1cccc(-n2nccn2)c1 [UNC10302682A, P505-15 (PRT06207 HCl)]	14.74%

Alright, here's another molecule for you.
Q. // query Inhibition 4 value for entry CCCCNc1ncc2c(-c3ccc(CN4CCN(C)CC4)cc3)cn([C@H]3CC[C@H](O)CC3)c2n1 [UNC2025C, UNC2025]
A. 44.3%

* * *

targetOrTestSystem: cloned human or rodent CNS receptors, channels, and transporters (PDSP panel) (Homo sapiens)
Construct: expressed in transfected cells
assayInfo: PDSP GPCR panel primary binding assays at 10 μM
recordedConditions: Receptor D4; primary assay, 10 μM
Inhibition 3 values by entry
Give the value, in units of %, as a plain number.

Worked cases, Inhibition 3 given:
compound	Inhibition 3 [%]
CCCCNc1ncc2c(-c3ccc(CN4CCN(C)CC4)cc3)cn([C@H]3CC[C@H](O)CC3)c2n1 [UNC2025C, UNC2025]	0.67
O=c1oc2ccccc2cc1-c1cn2cc(Cc3ccc(F)cc3)sc2n1 [UNC10302680A, iMDK]	-6.5
c1cn2cc(-c3ccc4cn[nH]c4c3)nc(Nc3ccc(N4CCOCC4)cc3)c2n1 [UNC10302678A, Entospletinib (GS-9973)]	-2.39

Q. I am curious: what Inhibition 3 value has been reported for Cl.NC(=O)c1cnc(N[C@@H]2CCCC[C@@H]2N)nc1Nc1cccc(-n2nccn2)c1 [UNC10302682A, P505-15 (PRT06207 HCl)] ?
A. 13.58

Data origin: paper PMC9005681
